These entries and their values trace back to patent US20120202818A1.

- Experimental system: Ret kinase (Homo sapiens)
- Construct: purchased Millipore (KinaseProfiler service) and/or Reaction Biology Corp. (Kinase HotSpot service)
- Sequence (P07949 29-1114): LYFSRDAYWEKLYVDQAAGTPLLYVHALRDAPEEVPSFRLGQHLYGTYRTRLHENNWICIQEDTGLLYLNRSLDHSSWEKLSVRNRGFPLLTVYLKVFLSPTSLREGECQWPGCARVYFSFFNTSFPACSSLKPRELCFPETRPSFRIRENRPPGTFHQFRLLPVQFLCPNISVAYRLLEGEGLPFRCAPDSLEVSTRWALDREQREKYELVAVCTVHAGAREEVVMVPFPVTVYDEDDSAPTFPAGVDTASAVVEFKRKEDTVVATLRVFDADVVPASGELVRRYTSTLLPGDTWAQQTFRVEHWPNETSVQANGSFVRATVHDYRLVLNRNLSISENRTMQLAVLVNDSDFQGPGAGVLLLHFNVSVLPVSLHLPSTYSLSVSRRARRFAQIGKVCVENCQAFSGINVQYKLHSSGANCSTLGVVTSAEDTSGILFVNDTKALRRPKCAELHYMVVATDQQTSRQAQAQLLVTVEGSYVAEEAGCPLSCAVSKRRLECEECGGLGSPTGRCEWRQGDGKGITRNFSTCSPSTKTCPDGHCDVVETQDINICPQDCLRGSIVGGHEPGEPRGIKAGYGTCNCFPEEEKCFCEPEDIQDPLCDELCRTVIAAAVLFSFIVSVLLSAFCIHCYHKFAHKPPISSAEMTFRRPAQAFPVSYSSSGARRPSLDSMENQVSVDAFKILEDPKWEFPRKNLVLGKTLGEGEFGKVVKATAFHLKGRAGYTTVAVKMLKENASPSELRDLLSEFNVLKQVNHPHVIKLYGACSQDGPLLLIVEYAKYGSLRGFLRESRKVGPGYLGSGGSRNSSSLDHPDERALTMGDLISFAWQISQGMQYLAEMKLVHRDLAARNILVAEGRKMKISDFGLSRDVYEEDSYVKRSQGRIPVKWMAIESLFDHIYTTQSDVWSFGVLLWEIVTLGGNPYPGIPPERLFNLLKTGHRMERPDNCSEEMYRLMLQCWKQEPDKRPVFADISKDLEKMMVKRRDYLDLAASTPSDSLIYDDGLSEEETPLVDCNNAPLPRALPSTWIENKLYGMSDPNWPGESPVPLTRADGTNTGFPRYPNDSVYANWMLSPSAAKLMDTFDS
- Protocol: Ret kinase assay (KinaseProfiler / Kinase HotSpot)
- Type: biochemical
- Study conditions: compound at 1 μM
Examples of compounds with documented inhibition at 1 µM follow.

Worked cases, inhibition at 1 µM given:
CCNC(=O)Nc1ccc(Nc2nc(CC)nc(Nc3cc(C)[nH]n3)n2)cc1 < 50%
CCNC(=O)Nc1ccc(Nc2nc(CC)nc(Nc3cc(C)n(C(=O)NCC)n3)n2)cc1 < 50%
Cc1cnc(Nc2nc(Sc3ccc(NC(=O)Nc4ccccc4)cc3)nc(N3CCN(C)CC3)n2)s1 50 to 90%
CCc1nc(Nc2ccc(NC(=O)NCc3ccccc3)cc2)nc(Nc2cc(C)[nH]n2)n1 > 90%
CCc1nc(Nc2ccc(NC(=O)Nc3ccc(OC)cc3)cc2)nc(Nc2cc(C)[nH]n2)n1 50 to 90%
CCc1nc(Nc2ccc(NC(=O)Nc3ccccc3C)cc2)nc(Nc2cc(C)[nH]n2)n1 < 50%
Cc1cnc(Nc2nc(Sc3cccc(N)c3)nc(N3CCN(C)CC3)n2)s1 < 50%
CCc1nc(Nc2ccc(NC(=O)NC(C)C)cc2)nc(Nc2cc(C)[nH]n2)n1 < 50%

GET /values?readout=inhibition at 1 µM&item= Cc1cnc(Nc2nc(Sc3ccc(N)cc3)nc(N3CCN(C)CC3)n2)s1
50 to 90%

###

- Experimental system: TrkA Kinase (Homo sapiens, UniProt P04629)
- Construct: purchased Millipore (KinaseProfiler service) and/or Reaction Biology Corp. (Kinase HotSpot service)
- Sequence (P04629 33-796): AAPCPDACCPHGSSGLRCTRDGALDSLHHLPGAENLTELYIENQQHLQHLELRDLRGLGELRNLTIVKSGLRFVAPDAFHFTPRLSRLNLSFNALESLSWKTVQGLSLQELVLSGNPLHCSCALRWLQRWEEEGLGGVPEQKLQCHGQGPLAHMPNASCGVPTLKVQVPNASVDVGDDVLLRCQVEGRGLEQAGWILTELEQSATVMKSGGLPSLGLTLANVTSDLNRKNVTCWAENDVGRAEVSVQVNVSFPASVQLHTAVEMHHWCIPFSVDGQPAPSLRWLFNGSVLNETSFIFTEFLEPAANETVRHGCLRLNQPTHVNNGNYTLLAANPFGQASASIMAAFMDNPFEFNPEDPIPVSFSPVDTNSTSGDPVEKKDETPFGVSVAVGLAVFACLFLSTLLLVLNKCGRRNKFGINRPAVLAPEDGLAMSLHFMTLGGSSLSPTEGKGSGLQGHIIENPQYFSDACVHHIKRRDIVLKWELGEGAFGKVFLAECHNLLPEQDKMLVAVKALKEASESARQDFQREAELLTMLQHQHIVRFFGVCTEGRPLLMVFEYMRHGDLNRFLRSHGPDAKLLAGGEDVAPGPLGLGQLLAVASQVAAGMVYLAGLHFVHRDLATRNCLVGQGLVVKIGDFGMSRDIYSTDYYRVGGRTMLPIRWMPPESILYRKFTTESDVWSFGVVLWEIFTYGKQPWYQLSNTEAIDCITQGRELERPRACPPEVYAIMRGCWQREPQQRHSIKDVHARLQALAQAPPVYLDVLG
- Protocol: TrkA kinase assay (KinaseProfiler / Kinase HotSpot)
- Format: biochemical
- Study conditions: compound at 1 μM
Examples of compounds with documented inhibition at 1 µM follow.

Cc1cnc(Nc2nc(Sc3ccc(N)cc3)nc(N3CCN(C)CC3)n2)s1 50 to 90%

Then this compound:
GET /values?readout=inhibition at 1 µM&item= CCc1nc(Nc2ccc(NC(=O)Nc3ccc(C(F)(F)F)cc3)cc2)nc(Nc2cc(C)[nH]n2)n1
< 50%

###

- Experimental system: Flt3 kinase (Homo sapiens, UniProt P36888)
- Construct: purchased Millipore (KinaseProfiler service) and/or Reaction Biology Corp. (Kinase HotSpot service)
- Sequence (P36888 27-993): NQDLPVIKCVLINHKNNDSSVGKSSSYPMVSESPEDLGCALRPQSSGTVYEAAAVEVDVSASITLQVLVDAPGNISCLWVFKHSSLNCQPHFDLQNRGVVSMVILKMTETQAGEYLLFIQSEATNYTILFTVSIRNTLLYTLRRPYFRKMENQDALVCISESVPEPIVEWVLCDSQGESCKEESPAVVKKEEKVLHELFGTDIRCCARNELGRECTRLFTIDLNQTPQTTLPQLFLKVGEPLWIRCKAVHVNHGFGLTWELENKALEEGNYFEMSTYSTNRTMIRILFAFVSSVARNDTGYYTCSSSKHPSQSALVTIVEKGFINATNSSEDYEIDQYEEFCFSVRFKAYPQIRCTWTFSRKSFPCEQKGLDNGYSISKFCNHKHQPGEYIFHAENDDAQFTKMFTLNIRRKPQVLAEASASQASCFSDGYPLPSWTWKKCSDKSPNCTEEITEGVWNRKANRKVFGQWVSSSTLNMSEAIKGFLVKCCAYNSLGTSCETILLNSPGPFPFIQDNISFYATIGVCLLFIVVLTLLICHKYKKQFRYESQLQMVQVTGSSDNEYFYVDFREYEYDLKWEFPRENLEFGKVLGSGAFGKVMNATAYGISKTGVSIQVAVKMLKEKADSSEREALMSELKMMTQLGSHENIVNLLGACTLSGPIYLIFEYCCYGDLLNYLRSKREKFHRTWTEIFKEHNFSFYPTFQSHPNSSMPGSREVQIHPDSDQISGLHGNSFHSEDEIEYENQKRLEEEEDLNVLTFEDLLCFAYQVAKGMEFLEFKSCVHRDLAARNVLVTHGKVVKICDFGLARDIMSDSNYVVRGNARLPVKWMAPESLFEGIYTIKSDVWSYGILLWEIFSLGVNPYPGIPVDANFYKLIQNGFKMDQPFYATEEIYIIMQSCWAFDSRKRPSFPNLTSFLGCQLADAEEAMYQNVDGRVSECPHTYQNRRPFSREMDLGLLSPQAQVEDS
- Protocol: Flt3 kinase assay (KinaseProfiler / Kinase HotSpot)
- Format: biochemical
- Study conditions: compound at 1 μM
Measured endpoint: inhibition at 1 µM

Worked cases, inhibition at 1 µM given:
CCNC(=O)Nc1ccc(Nc2nc(CC)nc(Nc3cc(C)[nH]n3)n2)cc1 < 50%
CCc1nc(Nc2ccc(NC(=O)NCc3ccccc3)cc2)nc(Nc2cc(C)[nH]n2)n1 < 50%
CCc1nc(Nc2ccc(NC(=O)Nc3ccc(C(F)(F)F)cc3)cc2)nc(Nc2cc(C)[nH]n2)n1 < 50%
CCNC(=O)Nc1ccc(Nc2nc(CC)nc(Nc3cc(C)n(C(=O)NCC)n3)n2)cc1 < 50%
CCc1nc(Nc2ccc(NC(=O)NC(C)C)cc2)nc(Nc2cc(C)n(C(=O)NC(C)C)n2)n1 < 50%
CCc1nc(Nc2ccc(NC(=O)Nc3ccc(OC)cc3)cc2)nc(Nc2cc(C)[nH]n2)n1 50 to 90%

GET /values?readout=inhibition at 1 µM&item= Cc1cnc(Nc2nc(Sc3cccc(N)c3)nc(N3CCN(C)CC3)n2)s1
50 to 90%

Cc1cnc(Nc2nc(Sc3ccc(N)cc3)nc(N3CCN(C)CC3)n2)s1 , same question.
> 90%

Cc1cnc(Nc2nc(Sc3ccc(NC(=O)Nc4ccccc4)cc3)nc(N3CCN(C)CC3)n2)s1 , same question.
50 to 90%

CCc1nc(Nc2ccc(NC(=O)Nc3ccccc3)cc2)nc(Nc2ncc(C)s2)n1 , same question.
< 50%

CCc1nc(Nc2ccc(NC(=O)Nc3ccccc3C)cc2)nc(Nc2cc(C)[nH]n2)n1 , same question.
< 50%

CCc1nc(Nc2ccc(NC(=O)NC(C)C)cc2)nc(Nc2cc(C)[nH]n2)n1 , same question.
< 50%
